experiment: In Vitro Microsome Stability Assay (monkey); assay type: in vitro ADME; details: monkey liver microsomes, 30 min w/ NADPH
measuredMetric: Liver Microsome Stability-% Left after 30 min w/ NADPH (%) Monkey

compound: Cc1cccc(C)c1N1CCN(S(=O)(=O)N2CCCN(CC3CCCCC3)CCCN(S(=O)(=O)c3ccc(N(C)C)cc3)C[C@H](C)C2)CC1
assayResult: 53.9%
//
compound: C[C@H]1CN(S(=O)(=O)c2ccc(N(C)C)cc2)CCCN(CC2CC(F)(F)C2)CCCN(S(=O)(=O)N2CCc3cc(Cl)ccc3C2)C1
assayResult: 4.23%
//
compound: C[C@H]1CN(S(=O)(=O)c2ccc(N(C)C)cc2)CCCN(CC(F)(F)F)CCCN(S(=O)(=O)N2CCc3cc(Cl)ccc3C2)C1
assayResult: 73%
//
compound: CC1Cc2ccccc2CN1S(=O)(=O)N1CCCN(CC2CCCCC2)CCCN(S(=O)(=O)c2ccc(N(C)C)cc2)C[C@H](C)C1 (stereo partly shown)
assayResult: 2.63%

* * *

test: In Vitro Microsome Stability Assay (mouse); type: in vitro ADME; conditions: mouse, 30 min, NADPH
Where a name gives a salt, the structure may show the parent alone.
Flag rule - Liver Microsome Stability-% Left after 30 min w/ NADPH (%) Mouse less than 0.3% flags true (1); the remaining entries get false (0).

compound: C=C1CN(S(=O)(=O)c2ccc(N(C)C)cc2)CCCN(CC2CCCCC2)CCCN(S(=O)(=O)N2CCc3ccc(Cl)cc3C2)C1
group: false (0)
--
compound: CN(C)c1ccc(S(=O)(=O)N2CCCN(CC3CCCCC3)CCCN(S(=O)(=O)N3CCCCC3)CC3(CC3)C2)cc1 [A19, hydrochloride]
group: true (1)
--
compound: CN(C)c1ccc(S(=O)(=O)N2CCCN(CC3CCCCC3)CCCN(S(=O)(=O)N3CCCCCC3)CC3(CC3)C2)cc1
group: false (0)
--
compound: C=C1CN(S(=O)(=O)c2ccc(N(C)C)cc2)CCCN(CC2CCCCC2)CCCN(S(=O)(=O)N2CCc3cc(Br)ccc3C2)C1
group: false (0)
--
compound: C=C1CN(S(=O)(=O)c2ccc(N(C)C)cc2)CCCN(CC2CCCCC2)CCCN(S(=O)(=O)N2CCC(C3CCOCC3)CC2)C1
group: true (1)
--
compound: C=C1CN(S(=O)(=O)c2ccc(N(C)C)cc2)CCCN(CC2CCCCC2)CCCN(S(=O)(=O)N2CCC(n3cccn3)CC2)C1
group: false (0)
--
compound: C=C1CN(S(=O)(=O)c2ccc(N(C)C)cc2F)CCCN(CC2CCCCC2)CCCN(S(=O)(=O)N2CCc3cc(Cl)ccc3C2)C1
group: false (0)
--
compound: COC1CN(S(=O)(=O)c2ccc(N(C)C)cc2)CCCN(CC2CCCCC2)CCCN(S(=O)(=O)N2CCC(c3ccccc3)CC2)C1 (centres unmarked)
group: false (0)
--
compound: CN(C)c1ccc(S(=O)(=O)N2CCCN(CC3CCCCC3)CCCN(S(=O)(=O)N3CCCCC3)CC3(COC3)C2)cc1
group: false (0)
--
compound: C=C1CN(S(=O)(=O)c2ccc(N(C)C)cc2)CCCN(CC2CCCCC2)CCCN(S(=O)(=O)N(C)C)C1
group: false (0)
--
compound: C=C1CN(S(=O)(=O)c2ccc(N(C)C)cc2)CCCN(CC2CCCCC2)CCCN(S(=O)(=O)N2CCC(C#N)CC2)C1
group: true (1)
--
compound: CC1CCN(S(=O)(=O)N2CCCN(CC3CCCCC3)CCCN(S(=O)(=O)c3ccc(N(C)C)cc3)CC3(CC3)C2)CC1
group: true (1)
--
compound: COc1ccc(S(=O)(=O)N2CCCN(CC3CCCCC3)CCCN(S(=O)(=O)N3CCCCC3)CC3(CC3)C2)cc1
group: true (1)
--
compound: COc1cccc(S(=O)(=O)N2CCCN(CC3CCCCC3)CCCN(S(=O)(=O)N3CCCCC3)CC3(CC3)C2)c1
group: false (0)
--
compound: C=C1CN(S(=O)(=O)c2ccc(N(C)C)cc2)CCCN(CC2CCCCC2)CCCN(S(=O)(=O)N2CCC(C3CCCCC3)CC2)C1
group: false (0)
--
compound: C=C1CN(S(=O)(=O)c2ccc(C)cc2)CCCN(CC2CCCCC2)CCCN(S(=O)(=O)c2ccc(OC)cc2)C1
group: true (1)
--
compound: C=C1CN(S(=O)(=O)c2ccc(N(C)C)cc2)CCCN(CC2CCCCC2)CCCN(S(=O)(=O)N2CCc3cc(F)ccc3C2)C1
group: false (0)
--
compound: COc1ccccc1S(=O)(=O)N1CCCN(CC2CCCCC2)CCCN(S(=O)(=O)N2CCCCC2)CC2(CC2)C1
group: true (1)
--
compound: C=C1CN(S(=O)(=O)c2ccc(N(C)C)cc2)CCCN(CC2CCCCC2)CCCN(S(=O)(=O)N2CCC(c3ccccc3Cl)CC2)C1
group: false (0)
--
compound: C=C1CN(S(=O)(=O)c2ccc(C)cc2)CCCN(CC2CCCCC2)CCCN(S(=O)(=O)C2CCCCC2)C1 [A5]
group: true (1)
--
compound: C=C1CN(S(=O)(=O)c2ccc(C)cc2)CCCN(CC2CCCCC2)CCCN(S(=O)(=O)c2ccc(C)cc2)C1
group: true (1)
--
compound: C=C1CN(S(=O)(=O)c2ccc(N(C)C)cc2)CCCN(CC2CCCCC2)CCCN(S(=O)(=O)N2CC=C(C3=CCCC3)CC2)C1
group: false (0)
--
compound: CO/N=C1/CN(S(=O)(=O)c2ccc(N(C)C)cc2)CCCN(CC2CCCCC2)CCCN(S(=O)(=O)N2CCC(c3ccccc3)CC2)C1
group: false (0)

* * *

tested on: full length IL-2 (amino acids 1-153) fused to Gaussia Luciferase; assay: Dox Induced IL2-FL-Gluc Assay; format: cell-based; conditions: 24 hr, Dox inducible, 293FRT/TO cells; read-out: 24 hr Dox Inducible IL2FLGluc 293FRT/TO: Mean IC50
pIC50: −log10 of the molar value.

itemSmiles: C[C@H](CNS(=O)(=O)c1ccc(N(C)C)cc1)CNS(=O)(=O)N1CCc2cc(Cl)ccc2C1
boundOperator: <
pIC50: 4.60
--
itemSmiles: C[C@H]1CN(S(=O)(=O)c2ccc3c(ccn3C)c2)CCCN(CC2CCCCC2)CCCN(S(=O)(=O)N2CCc3cc(Cl)ccc3C2)C1
boundOperator: =
pIC50: 7.00
--
itemSmiles: COc1cc(F)ccc1N1CCN(S(=O)(=O)N2CCCN(CC3CCCCC3)CCCN(S(=O)(=O)c3ccc(N(C)C)cc3)C[C@H](C)C2)C[C@H]1C
boundOperator: =
pIC50: 7.90
--
itemSmiles: COc1cc(F)cc(N2CCN(S(=O)(=O)N3CCCN(CC4CCCCC4)CCCN(S(=O)(=O)c4ccc(N(C)C)cc4)C[C@H](C)C3)C[C@H]2C)c1
boundOperator: =
pIC50: 6.98

* * *

assay: In Vitro Microsome Stability Assay (human); type: in vitro ADME; conditions: human, 30 min, NADPH
Counter-ions that a name gives are not always drawn.
Labelling: Liver Microsome Stability-% Left after 30 min w/ NADPH (%) Human reported below 20% becomes TRUE; at or above becomes FALSE.

molecule: O=S(=O)(c1ccccc1)N1CCCN(CC2CCCCC2)CCCN(S(=O)(=O)N2CCCCC2)CC2(CC2)C1
group: TRUE

molecule: COc1ccccc1S(=O)(=O)N1CCCN(CC2CCCCC2)CCCN(S(=O)(=O)N2CCCCC2)CC2(CC2)C1
group: TRUE

molecule: C=C1CN(S(=O)(=O)c2ccc(C)cc2)CCCN(CC2CCCCC2)CCCN(S(=O)(=O)c2ccc(N(C)C)cc2)C1
group: TRUE

molecule: CN(C)c1ccc(S(=O)(=O)N2CCCN(CC3CCCCC3)CCCN(S(=O)(=O)N3CCC(c4ccccc4)CC3)CCC2)cc1
group: TRUE

molecule: CN(C)c1ccc(S(=O)(=O)N2CCCN(CC3CCCCC3)CCCN(S(=O)(=O)N3CCC(c4ccccc4)CC3)CC3(CC3)C2)cc1
group: FALSE

molecule: C=C1CN(S(=O)(=O)c2ccc(N(C)C)cc2)CCCN(CC2CCCCC2)CCCN(S(=O)(=O)N2CCC(c3nc4ccccc4o3)CC2)C1
group: TRUE

molecule: O=S(=O)(C1CCCCC1)N1CCCN(CC2CCCCC2)CCCN(S(=O)(=O)N2CCCCC2)CC2(CC2)C1
group: TRUE

molecule: C=C1CN(S(=O)(=O)c2ccc(N(C)C)cc2)CCCN(CC2CCCCC2)CCCN(S(=O)(=O)N2CCC(c3ccccc3)CC2)C1 [A35, hydrochloride]
group: FALSE

molecule: C=C1CN(S(=O)(=O)c2ccc(N(C)C)cc2)CCCN(CC2CCCCC2)CCCN(S(=O)(=O)N2CCCCC2)C1
group: TRUE

molecule: CO/N=C1/CN(S(=O)(=O)c2ccc(N(C)C)cc2)CCCN(CC2CCCCC2)CCCN(S(=O)(=O)N2CCC(c3ccccc3)CC2)C1
group: TRUE

molecule: CC1CCCCN1S(=O)(=O)N1CCCN(CC2CCCCC2)CCCN(S(=O)(=O)c2ccc(N(C)C)cc2)CC2(CC2)C1 (stereo not shown)
group: TRUE

molecule: C=C1CN(S(=O)(=O)c2ccc(N(C)C)cc2)CCCN(CC2CCCCC2)CCCN(S(=O)(=O)N2CC=C(c3ccccc3Cl)CC2)C1
group: TRUE

molecule: C[C@H]1CN(S(=O)(=O)c2ccc(N(C)C)cc2)CCCN(CC2CCCCC2)CCCN(S(=O)(=O)N2CCN(c3ccc(F)cc3)CC2)C1
group: FALSE

molecule: C=C1CN(S(=O)(=O)c2ccc(N(C)C)cc2)CCCN(CC2CCCCC2)CCCN(S(=O)(=O)N2CCN(c3cccc(Cl)c3)CC2)C1
group: FALSE

molecule: CC1CCN(S(=O)(=O)N2CCCN(CC3CCCCC3)CCCN(S(=O)(=O)c3ccc(N(C)C)cc3)CC3(CC3)C2)CC1
group: TRUE

molecule: CC1CN(S(=O)(=O)c2ccc(N(C)C)cc2)CCCN(CC2CCCCC2)CCCN(S(=O)(=O)N2CCC(c3ccccc3)CC2)C1 (stereo not shown) [A44, hydrochloride]
group: FALSE

molecule: CN(C)c1ccc(S(=O)(=O)N2CCCN(CC3CCCCC3)CCCN(S(=O)(=O)N3CCC(C)(C)CC3)CC3(CC3)C2)cc1
group: TRUE

molecule: CN(C)c1ccc(S(=O)(=O)N2CCCN(CC3CCCCC3)CCCN(S(=O)(=O)N3CCCCC3)CC3(COC3)C2)cc1
group: TRUE

molecule: CN(C)c1ccc(S(=O)(=O)N2CCCN(CC3CCCCC3)CCCN(S(=O)(=O)N3CCCCC3)CC3(CC3)C2)c(F)c1
group: TRUE

molecule: C=C1CN(S(=O)(=O)c2ccc(N(C)C)cc2)CCCN(CC2CCCCC2)CCCN(S(=O)(=O)N2CCc3ccc(Cl)cc3C2)C1
group: FALSE

molecule: C=C1CN(S(=O)(=O)c2ccc(N(C)C)cc2)CCCN(CC2CCCCC2)CCCN(S(=O)(=O)N2CCc3cc(OC)ccc3C2)C1
group: TRUE

molecule: C=C1CN(S(=O)(=O)c2ccc(N(C)C)cc2)CCCN(CC2CCCCC2)CCCN(S(=O)(=O)N2CCC(c3ccccc3Cl)CC2)C1
group: FALSE

molecule: C=C1CN(S(=O)(=O)c2ccc(N(C)C)cc2)CCCN(CC2CCCCC2)CCCN(S(=O)(=O)N2Cc3ccc(Cl)cc3C2)C1
group: TRUE

molecule: C=C1CN(S(=O)(=O)c2ccc(N(C)C)cc2)CCCN(CC2CCCCC2)CCCN(S(=O)(=O)N2CC=C(c3ccc(Cl)cc3)CC2)C1
group: FALSE

molecule: COC1CCN(S(=O)(=O)N2CCCN(CC3CCCCC3)CCCN(S(=O)(=O)c3ccc(N(C)C)cc3)CC3(CC3)C2)CC1
group: TRUE
